Sourced from paper PMC10447463

Each record here notes measured Fibril.
- Format: physicochemical
- Set-up: key: 1 = fibrils present; 0 non-fibrillar structures
- Run conditions: TEM; 1 = fibrils present, 0 = non-fibrillar
Keep it simple and answer with nothing but the number.

Examples with answers:
{"columns": ["Substance", "Reported endpoint", "Value reported"],
 "data": [
  ["QCKAKAQA", "Fibril", 0],
  ["FDPFDPFDP", "Fibril", 0],
  ["KIKIKIKIWWWW", "Fibril", 0],
  ["RGDCKFKFQF", "Fibril", 1],
  ["QCKFKQFFNM", "Fibril", 1]
]}

# input Looking for the measured Fibril of "CKIKIQI" , can you help?
# output 1

# input Note, next up: "KIKIQINAWQ"
# output 1

# input Then what about the substance "NMWQKAKAQA" ?
# output 1
